viability, T/C values for the compounds below.
system: 349418-098-R tumor spheroid viability; assay: Anticancer human tumor 349418-098-R patient-derived lung adenocarcinoma cell line growth inhibition; conditions: second compound 31.6 µM; first compound 0.3 µM; stronger effect = lower value; spheroids with HUVEC and MSC
Express it in %; write the number only.

Req: Complete the entry with viability, T/C for CNCc1ccc(-c2cc(-c3nc(-c4ccc(S(=O)(=O)C(C)C)cc4)cnc3N)on2)cc1 + Cn1nnc2c(C(N)=O)ncn2c1=O
Resp: 42.7

Req: Indicate its recorded viability, T/C; the compound in question is Cn1ncnc1[C@H]1c2n[nH]c(=O)c3cc(F)cc(c23)N[C@@H]1c1ccc(F)cc1 + Cn1nnc2c(C(N)=O)ncn2c1=O
Resp: 35.6

Req: Using the record for Cc1sc2c(c1C)C(c1ccc(Cl)cc1)=NC(CC(=O)Nc1ccc(O)cc1)c1nnc(C)n1-2 (centres undefined) + Cn1nnc2c(C(N)=O)ncn2c1=O , state its measured viability, T/C.
Resp: 19.3

Req: Please give the documented viability, T/C of O=C(c1cc(Cc2n[nH]c(=O)c3ccccc23)ccc1F)N1CCN(C(=O)C2CC2)CC1 + Cn1nnc2c(C(N)=O)ncn2c1=O
Resp: 98.5

---

tested on: 349418-098-R tumor spheroid viability; experiment: Anticancer human tumor 349418-098-R cell line growth inhibition; conditions: second compound 0.0003 µM; first compound 0.949 µM; spheroids with HUVEC and MSC; active means viability on the fitted dose curve at most 10% of control; inactive means the rest;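 note: spheroids exposed to compound for 7 days before measurement; percent of vehicle control viability with 100% = DMSO-treated spheroids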
The reply should be one of these categories: active, inactive

| MOLECULE | QUALITATIVE_LABEL |
| --- | --- |
| Cn1ncnc1[C@H]1c2n[nH]c(=O)c3cc(F)cc(c23)N[C@@H]1c1ccc(F)cc1 + COc1cc2c(cc1O)CCNC21CSC2c3c(OC(C)=O)c(C)c4c(c3C(COC1=O)N1C(O)C3Cc5cc(C)c(OC)c(O)c5C(C21)N3C)OCO4 | inactive |
| Cc1sc2c(c1C)C(c1ccc(Cl)cc1)=NC(CC(=O)Nc1ccc(O)cc1)c1nnc(C)n1-2 (centres undefined) + COc1cc2c(cc1O)CCNC21CSC2c3c(OC(C)=O)c(C)c4c(c3C(COC1=O)N1C(O)C3Cc5cc(C)c(OC)c(O)c5C(C21)N3C)OCO4 | active |

Req: Called result for CNCc1ccc(-c2cc(-c3nc(-c4ccc(S(=O)(=O)C(C)C)cc4)cnc3N)on2)cc1 + COc1cc2c(cc1O)CCNC21CSC2c3c(OC(C)=O)c(C)c4c(c3C(COC1=O)N1C(O)C3Cc5cc(C)c(OC)c(O)c5C(C21)N3C)OCO4
Resp: active

Req: What call does the record list for O=C(c1cc(Cc2n[nH]c(=O)c3ccccc23)ccc1F)N1CCN(C(=O)C2CC2)CC1 + COc1cc2c(cc1O)CCNC21CSC2c3c(OC(C)=O)c(C)c4c(c3C(COC1=O)N1C(O)C3Cc5cc(C)c(OC)c(O)c5C(C21)N3C)OCO4 ?
Resp: inactive

---

system: 349418-098-R tumor spheroid viability; experiment: Anticancer human tumor 349418-098-R cell line growth inhibition; conditions: second compound 0.003 µM; first compound 0.316 µM; spheroids with HUVEC and MSC; active = viability on the fitted dose curve at most 10% of control; inactive = the rest;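 note: spheroids exposed to compound for 7 days before measurement; percent of vehicle control viability with 100% = DMSO-treated spheroids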
Mark one answer only. Choices: active, inactive

Field: example entries. Status: answers known.
| COMPOUND | QUALITATIVE_LABEL |
| --- | --- |
| COc1ccc([C@@H](O)c2cc(-c3ncnc4cc(N5CCOCC5)ccc34)c(F)cc2Cl)nn1 + CC[C@@]1(O)C(=O)OCc2c1cc1n(c2=O)Cc2cc3c(CN(C)C)c(O)ccc3nc2-1 | inactive |
| CC1COCCN1c1cc(-c2ccnn2C)c2ccnc(-c3ccn[nH]3)c2n1 (stereo not given) + COc1cc2c(cc1O)CCNC21CSC2c3c(OC(C)=O)c(C)c4c(c3C(COC1=O)N1C(O)C3Cc5cc(C)c(OC)c(O)c5C(C21)N3C)OCO4 | active |
| CC1COCCN1c1cc(-c2ccnn2C)c2ccnc(-c3ccn[nH]3)c2n1 (stereo not given) + CC[C@@]1(O)C(=O)OCc2c1cc1n(c2=O)Cc2cc3c(CN(C)C)c(O)ccc3nc2-1 | inactive |
| Cc1cc(C)c(CNC(=O)c2cc(-c3ccc(CN4CCOCC4)cc3)cc3c2cnn3C2CCCC2)c(=O)[nH]1 + CC[C@@]1(O)C(=O)OCc2c1cc1n(c2=O)Cc2cc3c(CN(C)C)c(O)ccc3nc2-1 | inactive |

Turning to the following compound.
Req: Assay outcome for COc1cc(C)[nH]c(=O)c1CN1CCc2c(Cl)cc(C(OC)C3COC3)c(Cl)c2C1=O (stereo not given) + COc1cc2c(cc1O)CCNC21CSC2c3c(OC(C)=O)c(C)c4c(c3C(COC1=O)N1C(O)C3Cc5cc(C)c(OC)c(O)c5C(C21)N3C)OCO4 : what was it?
Resp: active
